study-target: T1, human IL-11 (human, UniProt P20809 22-199)
T1 sequence: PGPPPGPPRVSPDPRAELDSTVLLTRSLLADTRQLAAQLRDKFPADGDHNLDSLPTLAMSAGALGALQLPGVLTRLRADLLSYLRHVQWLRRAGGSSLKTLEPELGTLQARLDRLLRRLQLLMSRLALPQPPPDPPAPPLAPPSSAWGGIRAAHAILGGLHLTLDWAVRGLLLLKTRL
assay-protocol: cell-based or functional assay
readout: RGA IC50 (nM)
A number alone suffices; assume nM.

[ask] Using the record for TPP-29396 (antibody, human IgG1, V domains shown) VH: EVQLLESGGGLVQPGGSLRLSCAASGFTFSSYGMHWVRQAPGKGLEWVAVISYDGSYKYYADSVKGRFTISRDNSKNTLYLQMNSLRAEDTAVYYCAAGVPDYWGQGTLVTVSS VL: QSVLTQPPSASGTPGQRVTISCSGSSSNIWSDYDVHWYQQLPGTAPKLLIYSNEERPSGVPDRFSGSKSGTSASLAISGLRSEDEADYYCAAWDFSLYGPVFGGGTKLTVL , report its RGA IC50.
[reply] 0.65

[ask] Using the record for TPP-29402 (antibody, human IgG1, V domains shown) VH: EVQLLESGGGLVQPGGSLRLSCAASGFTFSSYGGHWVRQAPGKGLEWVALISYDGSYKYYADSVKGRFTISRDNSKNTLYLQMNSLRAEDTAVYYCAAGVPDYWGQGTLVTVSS VL: QSVLTQPPSASGTPGQRVTISCSGSSSNIGSGLDVHWYQQLPGTAPKLLIYSNEERPSGVPDRFSGSKSGTSASLAISGLRSEDEADYYCAAWDSSLYGPVFGGGTKLTVL , report its RGA IC50.
[reply] 0.53

[ask] Using the record for TPP-29399 (antibody, human IgG1, V domains shown) VH: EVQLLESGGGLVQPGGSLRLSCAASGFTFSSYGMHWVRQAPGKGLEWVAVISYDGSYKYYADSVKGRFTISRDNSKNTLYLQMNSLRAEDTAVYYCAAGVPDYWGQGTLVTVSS VL: QSVLTQPPSASGTPGQRVTISCSGSSSNIGSDYDVHWYQQLPGTAPKLLIYSNNERPSGVPDRFSGSKSGTSASLAISGLRSEDEADYYCAAWDSSLSGPVFGGGTKLTVL , report its RGA IC50.
[reply] 0.73
